Target: Adenosine receptor A1 (Homo sapiens)
Assay: Agonist activity at human adenosine A1 receptor expressed in CHO cell membranes by [35S]GTPgammaS binding assay
Mark true (1) only when EC50 stays strictly below 2 nM. Values equal to the cut-off are false (0).

# entry-smiles, assigned-category
records = [
    ("COc1ccc(-c2c(C#N)c(N)nc(SCc3csc(-c4ccccn4)n3)c2C#N)cc1", "false (0)"),
    ("COc1ccc(-c2c(C#N)c(N)nc(SCc3cscn3)c2C#N)cc1", "true (1)"),
    ("COc1ccc(-c2c(C#N)c(N)nc(SCc3csc(-c4ccc(Cl)cc4)n3)c2C#N)cc1", "false (0)"),
    ("COc1ccc(-c2c(C#N)c(N)nc(SCc3csc(-c4ccccc4)n3)c2C#N)cc1", "true (1)"),
    ("N#Cc1c(N)nc(SCc2csc(-c3ccc(Cl)cc3)n2)c(C#N)c1-c1ccc(OCCO)cc1", "true (1)"),
    ("COc1ccc(-c2c(C#N)c(N)nc(SCc3csc(N4CCOCC4)n3)c2C#N)cc1", "true (1)"),
]

* * *

Biological target: UniProt P30542
Sequence (whole entry): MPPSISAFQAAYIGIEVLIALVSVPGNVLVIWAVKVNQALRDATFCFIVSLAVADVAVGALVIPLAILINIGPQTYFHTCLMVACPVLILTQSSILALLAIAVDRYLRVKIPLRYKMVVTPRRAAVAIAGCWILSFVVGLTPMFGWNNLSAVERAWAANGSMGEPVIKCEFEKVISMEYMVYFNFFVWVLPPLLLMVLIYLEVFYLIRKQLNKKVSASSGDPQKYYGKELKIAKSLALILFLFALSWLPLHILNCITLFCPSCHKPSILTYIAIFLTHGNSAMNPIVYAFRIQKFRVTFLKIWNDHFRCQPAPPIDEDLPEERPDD
Assay: Displacement of [3H]DPCPX from human adenosine A1 receptor expressed in CHO cell membranes at 1 uM by competition association assay
Some compounds, each annotated with its measured inhibition.
reported-endpoint: inhibition

# entry-smiles, tested-on, obs-value
records = [
    ("COc1ccc(-c2c(C#N)c(N)nc(SCc3csc(-c4ccc(Br)cc4)n3)c2C#N)cc1", "UniProt P30542", "> 80%"),
    ("CN(C)CCNc1nc(SCc2csc(-c3ccc(Cl)cc3)n2)nc(-c2ccc3c(c2)OCO3)c1C#N", "UniProt P30542", "< 80%"),
    ("CC(=O)Nc1ccc(-c2nc(SCc3cccc(CCC(=O)N4CCN(CCN(C(C)C)C(C)C)CC4)n3)nc(N)c2C#N)cc1", "UniProt P30542", "< 80%"),
    ("CC(=O)Nc1ccc(-c2nc(SCc3cccc(CCC(=O)N4CCN(C)CC4)n3)nc(N)c2C#N)cc1", "UniProt P30542", "< 80%"),
    ("N#Cc1c(N)nc(SCc2csc(-c3cccc(Cl)c3)n2)nc1-c1ccc2c(c1)OCO2", "UniProt P30542", "> 80%"),
    ("N#Cc1c(N)nc(SCc2csc(-c3ccc(C(F)(F)F)cc3)n2)nc1-c1ccc2c(c1)OCO2", "UniProt P30542", "> 80%"),
    ("COc1ccc(-c2c(C#N)c(N)nc(SCc3csc(-c4ccc(C)cc4)n3)c2C#N)cc1", "UniProt P30542", "> 80%"),
    ("N#Cc1c(NCCCc2ccccc2)nc(SCc2csc(-c3ccc(Cl)cc3)n2)nc1-c1ccc2c(c1)OCO2", "UniProt P30542", "< 80%"),
    ("CN(C)c1ccc(-c2nc(SCc3csc(-c4ccc(Cl)cc4)n3)nc(N)c2C#N)cc1", "UniProt P30542", "> 80%"),
    ("CCC(CC)Nc1nc(SCc2csc(-c3ccc(Cl)cc3)n2)nc(-c2ccc3c(c2)OCO3)c1C#N", "UniProt P30542", "< 80%"),
]
